The measured values listed here are drawn from patent US20170022281A1.

Molecular target: T1, human PRLR (Biacore antigen) (human, UniProt P16471 25-234, limits assumed)
T1 construct: The construct injected over captured antibody is not described (a soluble form is likely); also called huPRLR
T1 sequence: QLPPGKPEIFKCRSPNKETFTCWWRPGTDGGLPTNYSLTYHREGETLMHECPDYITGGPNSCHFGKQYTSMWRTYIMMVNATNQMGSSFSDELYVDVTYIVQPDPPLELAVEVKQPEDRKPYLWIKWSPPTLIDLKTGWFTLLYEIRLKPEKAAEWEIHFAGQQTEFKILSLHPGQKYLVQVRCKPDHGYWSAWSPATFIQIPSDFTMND
Assay: SPR simultaneous binding; PRLR held by surface mAb chAb7
Entries and their measured solution mAb binding, % of PRLR binding follow.
Please respond with the number in % and leave the unit unwritten.

These recorded examples may help you get a feel for the data.
BINDER	MEASURE_UNIT	solution mAb binding, % of PRLR binding
chAb8 (antibody, human IgG1, kappa, V domains shown, chimeric, murine variable and human G1/kappa constant regions) VH: EVQLQQSGPELVKPGASVKISCKASGYTFTDYNIHWVKQSHGKSLEWIGYIYPNNDGTGYNQKFKSKATLTVDNSSSTAYMEVRSLTSEDSAVYYCARGDGNYVGDMDYWGQGTSVTVSS VL: DIQMTQSPASLSASVGETVTITCRASENIYSYLAWYQQKQGKPPQLLVYNAKTLAEGVPSRFSGGGSGTQFSLKINSLQPEDFGSYYCQHHYATPFTFGSGTKLEIKT	%	0
Ab39 (antibody, human IgG1, kappa, V domains shown, humanized from Ab7; G1; also called Ab4 HC.1a and Ab4 LC.1a) VH: EVQLVQSGAEVKKPGSSVKVSCKASGYTFTSYWIHWVRQAPGQGLEWIGEIDPSDSYTNYNQKFKGRATLTVDKSSSTAYMELSSLRSEDTAVYYCARSFFTNWFAYWGQGTLVTVSS VL: DVVMTQTPLSLSVTPGQPASISCRSSQSLVHSNGNTYLHWYLQKPGQSPQLLIYKVSNRFSGVPDRFSGSGSGTDFTLKISRVEAEDVGVYFCSQSTHVPFTFGGGTKVEIKR	%	1

Problem: Could you please provide reported solution mAb binding, % of PRLR binding for chAb6 (antibody, human IgG1, kappa, V domains shown, chimeric, murine variable and human G1/kappa constant regions) VH: QVQLQQPGAELVMPGSSVKLSCKASGYTFTTYWMHWVKQRPGQGLEWIGEIDPSDSYSNYNQKFKDKATLTVDKSSSTAYMQLSSLTSEDSAVYYCARNGGLGPAWFSYWGQGTLVTVSA VL: DIVMTQSQKFMSTTVGDRVSITCKASQYVGTAVAWYQQKPGQSPKLLIYSASNRYTGVPDRFTDSGSGTDFTLTISNLQSEDLADYFCQQYSSYPWTFGGGTKLEIKT ? Thanks!
Solution: 1
